target: Serine/threonine-protein kinase MARK1 (Homo sapiens); details: at 0.1 µM
Description: GSK_PKIS: MARK1 mean inhibition at 0.1 uM [Nanosyn]
Each record here notes measured inhibition.
experimentalEndpoint: inhibition (%)

{"chemicalStructure": "CCn1c(-c2nonc2N)nc2cncc(C(=O)N3CC[C@H](N)C3)c21", "experimentalTarget": "Serine/threonine-protein kinase MARK1 (Homo sapiens)", "experimentalResult": 4.67}
{"chemicalStructure": "O=C(Nc1n[nH]c2nc(-c3ccco3)c(Br)cc12)C1CC1", "experimentalTarget": "Serine/threonine-protein kinase MARK1 (Homo sapiens)", "experimentalResult": 2.45}
{"chemicalStructure": "CS(=O)(=O)Nc1ccc(N/C=C2\\C(=O)Nc3ccccc32)cc1", "experimentalTarget": "Serine/threonine-protein kinase MARK1 (Homo sapiens)", "experimentalResult": 3.85}
{"chemicalStructure": "COc1ccc(-c2ccncc2)cc1C(N)=O", "experimentalTarget": "Serine/threonine-protein kinase MARK1 (Homo sapiens)", "experimentalResult": 2.8}
{"chemicalStructure": "c1cnn2ncc(-c3ccnc(Nc4ccc5c(c4)OCCO5)n3)c2c1", "experimentalTarget": "Serine/threonine-protein kinase MARK1 (Homo sapiens)", "experimentalResult": 4.18}
